Entry source: ChEMBL document CHEMBL4028802

Species on record: Homo sapiens
assay: Liver toxicity in human assessed as induction of drug-induced liver injury by measuring verified drug-induced liver injury concern status
measurement name: DILI_Concern

Would you please look over these solved cases?
CC[C@H](C)C[C@H](C)CCCCCCCCC(=O)N[C@H]1C[C@@H](O)[C@@H](NCCN)NC(=O)[C@@H]2[C@@H](O)CCN2C(=O)[C@H]([C@H](O)CCN)NC(=O)[C@H]([C@H](O)[C@@H](O)c2ccc(O)cc2)NC(=O)[C@@H]2C[C@@H](O)CN2C(=O)[C@H]([C@@H](C)O)NC1=O: Ambiguous-Dili-Concern
CN1CCC[C@@H]1Cc1c[nH]c2ccc(CCS(=O)(=O)c3ccccc3)cc12: Ambiguous-Dili-Concern
COc1ccc2c(c1)[C@]13CCCC[C@@H]1[C@H](C2)N(C)CC3: No-Dili-Concern
CN(C)CCc1c[nH]c2ccc(CS(=O)(=O)N3CCCC3)cc12: No-Dili-Concern
C[C@H](CCC(=O)O)[C@H]1CC[C@H]2[C@@H]3[C@H](O)C[C@@H]4C[C@H](O)CC[C@]4(C)[C@H]3CC[C@]12C: Ambiguous-Dili-Concern

Query compound follows.
Record request: DILI_Concern value, item C[C@H](CCC(=O)O)[C@H]1CC[C@H]2[C@@H]3[C@@H](O)C[C@@H]4C[C@H](O)CC[C@]4(C)[C@H]3CC[C@]12C Ambiguous-Dili-Concern

====

Species on record: Homo sapiens
assay: Liver toxicity in human assessed as induction of drug-induced liver injury by measuring verified drug-induced liver injury concern status
measurement name: DILI_Concern

COC(=O)CCc1ccc(OCC(O)CNC(C)C)cc1 (stereo not drawn): No-Dili-Concern
CNC[C@H](O)[C@@H](O)[C@H](O)[C@H](O)CO.CNC[C@H](O)[C@@H](O)[C@H](O)[C@H](O)CO.O=C(CCCCC(=O)Nc1c(I)cc(I)c(C(=O)O)c1I)Nc1c(I)cc(I)c(C(=O)O)c1I [IODIPAMIDE MEGLUMINE]: No-Dili-Concern

====

Species on record: Homo sapiens
assay: Liver toxicity in human assessed as induction of drug-induced liver injury by measuring verified drug-induced liver injury concern status
measurement name: DILI_Concern

Would you please look over these solved cases?
C[C@@H](O[C@H]1OCCN(Cc2nc(O)n(P(=O)(O)O)n2)[C@H]1c1ccc(F)cc1)c1cc(C(F)(F)F)cc(C(F)(F)F)c1 [FOSAPREPITANT]: Ambiguous-Dili-Concern
[H]/N=C(/N)N[C@H]1[C@H](O)[C@@H](O)[C@H](O[C@@H]2O[C@@H](C)[C@](O)(C=O)[C@H]2O[C@@H]2O[C@@H](CO)[C@H](O)[C@@H](O)[C@@H]2NC)[C@@H](N/C(N)=N\[H])[C@@H]1O: No-Dili-Concern
CC(=O)OCC[N+](C)(C)C.[Cl-] [ACETYLCHOLINE CHLORIDE]: No-Dili-Concern
O=C(O[C@H]1C[C@H]2CC[C@@H](C1)[N+]21CCCC1)C(O)(c1ccccc1)c1ccccc1.[Cl-] [TROSPIUM CHLORIDE]: No-Dili-Concern

Record request: DILI_Concern value, item O=C1CN2Cc3c(ccc(Cl)c3Cl)N=C2N1 [ANAGRELIDE] Ambiguous-Dili-Concern

====

Species: Homo sapiens
assay: Liver toxicity in human assessed as induction of drug-induced liver injury by measuring severity class index
Non-standard residues stand in square brackets, D forms with d. Residues, ends and D or L forms follow the SMILES beside them. *: point of attachment. dPhe(4-NHCONH2) = NC(=O)Nc1ccc(C[C@@H](N)C(=O)O)cc1; Dihydroorotyl(S) = O=C1C[C@@H](C(=O)*)NC(=O)N1; dPhe(4-Cl) = N[C@H](Cc1ccc(Cl)cc1)C(=O)O; Phe(4-NH2) = Nc1ccc(C[C@H](N)C(=O)O)cc1; d2Nal = N[C@H](Cc1ccc2ccccc2c1)C(=O)O; Lys(iPr) = CC(C)NCCCC[C@H](N)C(=O)O; d3Pal = N[C@H](Cc1cccnc1)C(=O)O
measurement name: DILI_severity_class
// no unit string in output, number only

CC(=O)N[C@H](Cc1ccc2ccccc2c1)C(=O)N[C@H](Cc1ccc(Cl)cc1)C(=O)N[C@H](Cc1cccnc1)C(=O)N[C@@H](CO)C(=O)N[C@@H](Cc1ccc(NC(=O)[C@@H]2CC(=O)NC(=O)N2)cc1)C(=O)N[C@H](Cc1ccc(NC(N)=O)cc1)C(=O)N[C@@H](CC(C)C)C(=O)N[C@@H](CCCCNC(C)C)C(=O)N1CCC[C@H]1C(=O)N[C@H](C)C(N)=O [DEGARELIX] (Ac-[d2Nal][dPhe(4-Cl)][d3Pal]S[Phe(4-NH2)](Dihydroorotyl(S))[dPhe(4-NHCONH2)]L[Lys(iPr)]P[dA]-NH2): 3
Cc1ccccc1N1C(=O)c2cc(S(N)(=O)=O)c(Cl)cc2NC1C (stereo not given): 3

Record request: DILI_severity_class value, item COc1cc(Cc2cnc(N)nc2N)cc(OC)c1OC 4

Record request: DILI_severity_class value, item CN(N=O)C(=O)N[C@@H](C=O)[C@@H](O)[C@H](O)[C@H](O)CO 3

Record request: DILI_severity_class value, item Nc1nc(/C(=C/CC(=O)O)C(=O)N[C@@H]2C(=O)N3C(C(=O)O)=CCS[C@H]23)cs1 3

====

Species: Homo sapiens
assay: Liver toxicity in human assessed as induction of drug-induced liver injury by measuring severity class index
Think of 2 as a floor: if DILI_severity_class stands on it or above, it is class 1; beneath it, class 0.

C[C@H](/C=C/[C@H](C)C(C)(C)O)[C@H]1CC[C@H]2/C(=C/C=C3C[C@@H](O)C[C@H](O)C3)CCC[C@]12C [PARICALCITOL]: class 1

Kindly determine if DILI_severity_class recorded for CCCc1nc(C(C)(C)O)c(C(=O)OCc2oc(=O)oc2C)n1Cc1ccc(-c2ccccc2-c2nnn[nH]2)cc1 [OLMESARTAN MEDOXOMIL] is above or exactly 2. class 1

Kindly determine if DILI_severity_class recorded for C[C@H](N[C@@H](CCc1ccccc1)C(=O)O)C(=O)N1CCC[C@H]1C(=O)O [ENALAPRILAT ANHYDROUS] is above or exactly 2. class 1

Kindly determine if DILI_severity_class recorded for CCC1(c2ccccc2)C(=O)NCNC1=O [PRIMIDONE] is above or exactly 2. class 0

Kindly determine if DILI_severity_class recorded for C[C@@H](Cc1ccccc1)N(C)Cc1ccccc1 [BENZPHETAMINE] is above or exactly 2. class 0

Kindly determine if DILI_severity_class recorded for CONC(=N)c1ccc(-c2ccc(-c3ccc(C(=N)NOC)cc3)o2)cc1 [PAFURAMIDINE] is above or exactly 2. class 1

Kindly determine if DILI_severity_class recorded for CCc1oc2ccccc2c1C(=O)c1ccc(O)cc1 [BENZARONE] is above or exactly 2. class 1

====

Species on record: Homo sapiens
assay: Liver toxicity in human assessed as induction of drug-induced liver injury by measuring verified drug-induced liver injury concern status
measurement name: DILI_Concern

Would you please look over these solved cases?
CN(C)CCOC(c1ccc(Cl)cc1)c1ccccn1 (stereo not drawn): No-Dili-Concern
C[C@@H](O)[C@H]1C(=O)N2C(C(=O)O)=C(S[C@@H]3CN[C@H](C(=O)Nc4cccc(C(=O)O)c4)C3)[C@H](C)[C@H]12: Ambiguous-Dili-Concern
CCC1=C[C@@H]2CN(C1)Cc1c([nH]c3ccccc13)[C@@](C(=O)OC)(c1cc3c(cc1OC)N(C)[C@H]1[C@@](O)(C(=O)OC)[C@H](OC(C)=O)[C@]4(CC)C=CCN5CC[C@]31[C@@H]54)C2: Ambiguous-Dili-Concern
COc1cc(C(=O)NS(=O)(=O)c2ccccc2C)ccc1Cc1cn(C)c2ccc(NC(=O)OC3CCCC3)cc12: Most-Dili-Concern

Record request: DILI_Concern value, item O=C(O)c1cc(/N=N/c2ccc(S(=O)(=O)Nc3ccccn3)cc2)ccc1O Most-Dili-Concern

Record request: DILI_Concern value, item NC(=O)C1CCN(CCCN2c3ccccc3Sc3ccc(Cl)cc32)CC1 Most-Dili-Concern

Record request: DILI_Concern value, item CSCC[C@H](N)C(=O)O No-Dili-Concern

Record request: DILI_Concern value, item CCOC(=O)C1(c2ccccc2)CCN(C)CC1 No-Dili-Concern

====

Species on record: Homo sapiens
assay: Liver toxicity in human assessed as induction of drug-induced liver injury by measuring verified drug-induced liver injury concern status
Positions of bridges follow the written chain, without caps; N, C: chain ends. Residues, ends and D or L forms follow the SMILES beside them.
measurement name: DILI_Concern

CC[C@H](C)[C@@H]1NC(=O)[C@H](Cc2ccc(O)cc2)NC(=O)[C@@H](N)CSSC[C@@H](C(=O)N2CCC[C@H]2C(=O)N[C@@H](CC(C)C)C(=O)NCC(N)=O)NC(=O)[C@H](CC(N)=O)NC(=O)[C@H]([C@@H](C)O)NC1=O (H-CYITNCPLG-NH2; disulfide 1-6): No-Dili-Concern
C/C=C1\NC(=O)[C@@H]2CSSCC/C=C/[C@@H](CC(=O)N[C@H](C(C)C)C(=O)N2)OC(=O)[C@H](C(C)C)NC1=O: No-Dili-Concern
